Biological target: G protein-coupled receptor 119 (GPR-119) (Mesocricetus auratus, UniProt A0A1U8CD06)
Construct: hamster-derived β-cells containing G protein-coupled receptor 119 (GPR-119), HIT-T15 cells; host or cells: HIT-T15 (hamster pancreatic β-cells)
Sequence (A0A1U8CD06 1-334): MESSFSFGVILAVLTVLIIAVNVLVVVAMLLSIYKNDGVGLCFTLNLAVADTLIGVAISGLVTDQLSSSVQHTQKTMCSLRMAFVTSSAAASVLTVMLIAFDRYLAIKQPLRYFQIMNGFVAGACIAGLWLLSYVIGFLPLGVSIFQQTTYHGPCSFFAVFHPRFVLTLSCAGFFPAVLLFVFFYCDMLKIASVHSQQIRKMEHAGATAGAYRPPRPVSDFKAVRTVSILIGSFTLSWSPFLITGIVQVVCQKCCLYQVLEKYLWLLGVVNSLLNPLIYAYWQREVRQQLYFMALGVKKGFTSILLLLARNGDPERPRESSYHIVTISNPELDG
Assay: Evaluation of cAMP activity in HIT-T15 cells (HTRF cAMP dynamic kit)
Assay type: cell-based, hamster
Settings: cAMP activation, 1 h at 37° C., six concentrations, read-out: EC50
Structures can show the parent of a compound that is named as a salt.
Listing of entries alongside the reported EC50.
# output: bare number, implied unit nM

INSERT INTO measurements (molecule, measured_on, numeric_readout) VALUES
  ('CC(C)c1noc(N2CCC(COc3ccc(C4=CCC(C(=O)N5CC(O)C5)CC4)cc3)CC2)n1 (stereo not drawn)', 'G protein-coupled receptor 119 (GPR-119) (Mesocricetus auratus, UniProt A0A1U8CD06)', 32),
  ('CCc1cnc(N2CCC(COc3ccc(C4=CCC(C(=O)N(CC)CCO)CC4)cc3)CC2)nc1 (stereo not drawn)', 'G protein-coupled receptor 119 (GPR-119) (Mesocricetus auratus, UniProt A0A1U8CD06)', 7),
  ('CCc1cnc(N2CCC(COc3ccc(C4=CCC(C(=O)N5CC[C@@H](O)C5)CC4)cc3)CC2)nc1 (stereo partly drawn)', 'G protein-coupled receptor 119 (GPR-119) (Mesocricetus auratus, UniProt A0A1U8CD06)', 13),
  ('CC(C)(C)OC(=O)N1CCC(COc2ccc(C3=CCC(C(=O)N4CCC(F)(F)C4)CC3)cc2)CC1 (stereo not drawn)', 'G protein-coupled receptor 119 (GPR-119) (Mesocricetus auratus, UniProt A0A1U8CD06)', 8),
  ('CC(C)c1noc(N2CCC(COc3ccc(C4=CCC(C(=O)NCC(=O)N5CCC[C@@H]5C#N)CC4)cc3F)CC2)n1 (stereo partly drawn)', 'G protein-coupled receptor 119 (GPR-119) (Mesocricetus auratus, UniProt A0A1U8CD06)', 130),
  ('C[C@@H](CO)NC(=O)C1CC=C(c2ccc(OCC3CCN(C(=O)OC(C)(C)C)CC3)nc2)CC1 (stereo partly drawn)', 'G protein-coupled receptor 119 (GPR-119) (Mesocricetus auratus, UniProt A0A1U8CD06)', 260),
  ('C[C@H](CO)NC(=O)C1CC=C(c2ccc(OCC3CCN(C(=O)OC(C)(C)C)CC3)cc2F)CC1 (stereo partly drawn)', 'G protein-coupled receptor 119 (GPR-119) (Mesocricetus auratus, UniProt A0A1U8CD06)', 140),
  ('CC(C)(CO)CNC(=O)C1CC=C(c2ccc(OCC3CCN(C(=O)OC(C)(C)C)CC3)c(F)c2)CC1 (stereo not drawn)', 'G protein-coupled receptor 119 (GPR-119) (Mesocricetus auratus, UniProt A0A1U8CD06)', 9),
  ('CC(C)(C)OC(=O)N1CCC(COc2ccc(C3=CCC(C(=O)NCC(F)F)CC3)cc2)CC1 (stereo not drawn)', 'G protein-coupled receptor 119 (GPR-119) (Mesocricetus auratus, UniProt A0A1U8CD06)', 34),
  ('CCc1cnc(N2CCC(COc3ccc(C4=CCC(C(=O)N5CCC(C#N)CC5)CC4)cc3)CC2)nc1 (stereo not drawn)', 'G protein-coupled receptor 119 (GPR-119) (Mesocricetus auratus, UniProt A0A1U8CD06)', 6);

Data request, read-out EC50, for CCc1cnc(N2CCC(COc3ccc(C4=CCC(C(=O)NCC(F)(F)F)CC4)cc3)CC2)nc1 (stereo not drawn)
75

Data request, read-out EC50, for CC(C)c1noc(N2CCC(COc3ccc(C4=CCC(C(=O)N5CCOCC5)CC4)cc3F)CC2)n1 (stereo not drawn)
8.4

Data request, read-out EC50, for CC(C)c1noc(N2CCC(COc3ccc(C4=CCC(C(=O)N5CCC[C@@H]5CO)CC4)cc3)CC2)n1 (stereo partly drawn)
6.9

Data request, read-out EC50, for CC(C)c1noc(N2CCC(COc3ccc(C4=CCC(C(=O)NCCC(=O)O)CC4)cc3F)CC2)n1 (stereo not drawn)
1500

Data request, read-out EC50, for CCc1cnc(N2CCC(COc3ccc(C4=CCC(C(=O)N5CCCCC5)CC4)cc3)CC2)nc1 (stereo not drawn) [Example 167, hydrochloride]
14

Data request, read-out EC50, for CC(C)c1noc(N2CCC(COc3ccc(C4=CCC(C(=O)N5CC[C@H](F)C5)CC4)nc3)CC2)n1 (stereo partly drawn)
52

Data request, read-out EC50, for CCO/N=C1/CCN(C(=O)C2CC=C(c3ccc(OCC4CCN(c5ncc(CC)cn5)CC4)cc3)CC2)C1 (stereo not drawn)
35

Data request, read-out EC50, for CC(C)(C)OC(=O)N1CCC(COc2ccc(C3=CCC(C(=O)N4CCS(=O)(=O)CC4)CC3)cc2F)CC1 (stereo not drawn)
11

Data request, read-out EC50, for CC(C)(C)OC(=O)N1CCC(COc2ccc(C3=CCC(C(=O)NC[C@@H](O)CO)CC3)cc2)CC1 (stereo partly drawn)
150

Data request, read-out EC50, for CCc1cnc(N2CCC(COc3ccc(C4=CCC(C(=O)N(C)CCO)CC4)cc3)CC2)nc1 (stereo not drawn)
16

Data request, read-out EC50, for CCOC(=O)CCNC(=O)C1CC=C(c2ccc(OCC3CCN(c4nc(C(C)C)no4)CC3)c(F)c2)CC1 (stereo not drawn)
110

Data request, read-out EC50, for CC(C)(C)OC(=O)N1CCC(COc2ccc(C3=CCC(C(=O)N4CCC(O)CC4)CC3)cc2)CC1 (stereo not drawn)
22

Data request, read-out EC50, for CCc1cnc(N2CCC(COc3ccc(C4=CCC(C(=O)NC[C@@H](O)CO)CC4)cc3)CC2)nc1 (stereo partly drawn)
80

Data request, read-out EC50, for CC(C)(C)OC(=O)N1CCC(COc2ccc(C3=CCC(C(=O)N4CCOCC4)CC3)cc2F)CC1 (stereo not drawn)
7

Data request, read-out EC50, for CC(C)(C)OC(=O)N1CCC(COc2ccc(C3=CCC(C(=O)NCC(F)F)CC3)cn2)CC1 (stereo not drawn)
70

Data request, read-out EC50, for CC(C)(C)OC(=O)N1CCC(COc2ccc(C3=CCC(C(=O)NCCF)CC3)cn2)CC1 (stereo not drawn)
130

Data request, read-out EC50, for CC(C)c1noc(N2CCC(COc3ccc(C4=CCC(C(=O)N5CC[C@@H](F)C5)CC4)cc3F)CC2)n1 (stereo partly drawn)
27
